Tested on: Hepatitis C virus NS3 helicase
assay: HCV NS3 helicase inhibitors, primary screen, biochemical, fluorescence polarization, ChemBridge library (AID 687043)
conditions: NS3h Cy5-dT15 DNA binding, at 100 µM, stronger effect = higher value
The campaign covered roughly 16,000 compounds. About 250 (1.6%) were called active. The entries come from a sample that favours actives as a whole.

compound: COc1ccccc1N1CCN(S(=O)(=O)c2ccc(SC)cc2)CC1
system under test: Hepatitis C virus NS3 helicase
inhibition / %: -1.6
--
compound: CCCCNC(=O)C(=O)NCCCOC(C)C
system under test: Hepatitis C virus NS3 helicase
inhibition / %: 4.2
--
compound: COC(=O)C1=C(C)NC2=C(C(=O)c3ccccc32)C1c1ccc(OCc2ccc(F)cc2)c(OC)c1 (centres undefined)
system under test: Hepatitis C virus NS3 helicase
inhibition / %: -0.7
--
compound: Cc1ccnc(SC2CC(=O)N(c3ccccc3)C2=O)n1 (centres undefined)
system under test: Hepatitis C virus NS3 helicase
inhibition / %: 1.2

----------
System: Hepatitis C virus NS3 helicase
assay: HCV NS3 helicase inhibitors, primary screen, biochemical, fluorescence polarization, ChemBridge library (AID 687043)
conditions: NS3h Cy5-dT15 DNA binding, at 100 µM
Hit rate of the full screen: of about 16,000 compounds, about 250 (1.6%) were called active.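 The calls were made as follows: active = inhibition above the average over every tested compound plus 3 SD (cut at about 40% in these data); inactive = the rest.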 Shown is part of a subset that was picked to be rich in actives.
Possible outcomes: active, inactive

molecule: O=[N+]([O-])c1ccc2c(c1)S(=O)(=O)N=C2Nc1cccnc1
label class: inactive

molecule: COc1ccc(C(=O)Oc2ccc3oc(=O)cc(C)c3c2)cc1OC
label class: active

molecule: CCC(=O)N1CCN(c2ccc(C(=O)c3ccccc3)cc2F)CC1
label class: inactive

molecule: CCN(CC)c1ccc(/C=C2\C(=O)NC(=O)N(c3ccc(OC)cc3)C2=O)c(OC)c1
label class: inactive

molecule: COc1ccc(-c2noc(-c3ccc(Br)cc3)n2)cc1
label class: inactive

molecule: O=C(Nc1nccs1)c1ccc(NC(=O)C2CCCCC2)cc1
label class: inactive

molecule: CC(C)n1c(O)c(C2=c3ccccc3=NC2=O)sc1=S
label class: inactive

molecule: O=C(CC(Nc1ccc2ncccc2c1)c1ccc(F)cc1)c1ccccc1 (stereo unspecified)
label class: inactive

molecule: COc1ccccc1NC(=O)C(=O)NCc1ccccc1
label class: inactive

molecule: CC(=O)C1=C(C)NC(C)=C(C(C)=O)C1c1cn(-c2ccccc2)nc1-c1cccs1
label class: inactive

molecule: Cc1ccc(C(=O)Nc2ccc(Cl)cc2)cc1[N+](=O)[O-]
label class: inactive

----------
Test system: Hepatitis C virus NS3 helicase
assay: HCV NS3 helicase inhibitors, primary screen, biochemical, fluorescence polarization, ChemBridge library (AID 687043)
conditions: NS3h Cy5-dT15 DNA binding, at 100 µM
The campaign covered roughly 16,000 compounds. About 250 (1.6%) were called active.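 How the source made its calls: active means inhibition above the average over every tested compound plus 3 SD (cut at about 40% in these data); inactive means the rest.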 Many of the other results were omitted from the sample, so actives are more common in it than they were.
Classes used: active, inactive

molecule: N/C(=N/OC(=O)c1ccccc1F)c1ccc(Br)cc1
label class: inactive
//
molecule: Cc1nc2c([N+](=O)[O-])cc(Br)cc2c(=O)[nH]1
label class: inactive
//
molecule: O=C(Nc1ccncc1)c1cc2ccccc2o1
label class: inactive
//
molecule: O=C(NCc1ccccc1)C1CC(=O)N(c2ccc(Cl)cc2)C1 (stereo unspecified)
label class: inactive
//
molecule: COc1cc(/C=C2/SC(=S)N(C)C2=O)ccc1OC(=O)c1cccs1
label class: inactive
//
molecule: Cc1ccc(N2C(=O)CC(NCCc3ccccc3F)C2=O)cc1 (stereo unspecified)
label class: inactive
//
molecule: Cc1ccc(N2C(=O)NC(=O)/C(=C\c3ccc(I)cc3)C2=O)cc1
label class: inactive
//
molecule: O=C(/C=C/c1ccc(Cl)cc1)Nc1ccc(-c2nc3ccccc3o2)c(O)c1
label class: inactive
//
molecule: O=C(CCc1ccccc1)N1N=C(c2cccc([N+](=O)[O-])c2)CC1(O)C(F)(F)F (stereo unspecified)
label class: inactive
//
molecule: O=C(c1ccncc1)N1N=C(c2ccc(Cl)cc2)CC1(O)C(F)(F)F (stereo unspecified)
label class: inactive
//
molecule: Cc1ccc(C(=O)C[n+]2cc(-c3ccccc3)n3c2CCCCC3)cc1
label class: active
